- assay-overview: Inhibition of HIV1 reverse transcriptase Y181C mutant infected in human MT2 cells assessed as protection against viral infection by MTT assay
pEC50: −log10 of the molar value.
Reported pEC50 values for a set of compounds

line-notation | pEC50
Cc1cc(Oc2ccccc2OCCn2ccc(=O)[nH]c2=O)cc2cc(C#N)ccc12 | 6.10
Cc1c(Oc2ccc(Cl)cc2OCCn2ccc(=O)[nH]c2=O)cc(F)c2ccc(C#N)cc12 | 6.48
Cc1c(Oc2ccccc2OCCn2ccc(=O)[nH]c2=O)cc(CC2CC2)c2ccc(C#N)cc12 | 6.05
COCc1cc(Oc2ccccc2OCCn2ccc(=O)[nH]c2=O)c(C)c2cc(C#N)ccc12 | 6.16
Cc1c(Oc2ccc(F)cc2OCCn2ccc(=O)[nH]c2=O)cc(Cl)c2ccc(C#N)cc12 | 7.57
N#Cc1ccc2c(F)cc(Oc3ccc(F)cc3OCCn3ccc(=O)[nH]c3=O)c(Cl)c2c1 | 7.14
CCc1cc(Oc2ccccc2OCCn2ccc(=O)[nH]c2=O)c(C)c2cc(C#N)ccc12 | 6.82
COc1cc(Oc2ccccc2OCCn2ccc(=O)[nH]c2=O)c(C)c2cc(C#N)ccc12 | 6.17
Cc1c(Oc2ccccc2OCCn2ccc(=O)[nH]c2=O)cc(C(C)C)c2ccc(C#N)cc12 | 6.40
